Values from PubChem BioAssay (NCI)

Test system: SNB-75 CNS
method: NCI tumour cell line growth inhibition, 48 h
Please provide measured TGI for the entries that follow.

Field: example entries. Status: answers known.
Noted for "COc1ccc(OC)c(NC(=O)C2=C(C)NC(C)=C(C(=O)Nc3cc(OC)ccc3OC)C2c2ccco2)c1" : its TGI reads > 100 µM

Form: compound = NC(N)=N/N=C(/CC1OC(=O)c2ccccc21)c1ccc2ccccc2c1 (centres undefined) ; TGI = 47.7 µM

// for each compound in input: emit TGI
1. CC(C)(C)c1ccc(C(=O)Nc2sc3c(c2C#N)CCC(=O)C3)cc1
2. COc1ccc(-c2cc(-c3ccccc3)nc(/N=C\c3ccccc3)n2)c(O)c1

Solution:
1: 2.6 µM; 2: > 100 µM
